The origin of these recorded values is patent US12448369B2.

System: Rabbit Psoas myofibrils (skeletal myosin ATPase)
Assay: Myofibril ATPase assay, rabbit psoas (skeletal) myofibrils
Type: biochemical
Details: Y75 value (no ‡ mark); rabbit psoas myofibrils
Give Skeletal EC25 for every item shown.
The reply should contain only the number, in nM.

Challenge: Give me measured Skeletal EC25, please, for this molecule: C[C@H](NC(=O)[C@H](C)c1c(C(F)(F)F)c2c(F)cccc2[nH]c1=O)c1ccc(F)cc1F (single isomer, unassigned)
Response given: 60

Challenge: Give me measured Skeletal EC25, please, for this molecule: Cc1c(CC(=O)N[C@H](C)c2ncc(F)cc2F)c(=O)[nH]c2ccc(F)c(C(F)(F)F)c12
Response given: 650

Challenge: Give me measured Skeletal EC25, please, for this molecule: Cc1nc(C#N)ncc1[C@H](C)NC(=O)Cc1c(C)c2c(F)c(F)ccc2[nH]c1=O
Response given: 20

Challenge: Give me measured Skeletal EC25, please, for this molecule: Cc1c(CC(=O)N[C@H](C)c2ncc(C#N)cc2F)c(=O)[nH]c2ccc(F)c(Cl)c12 (single isomer, unassigned)
Response given: 160

Challenge: Give me measured Skeletal EC25, please, for this molecule: C[C@H](NC(=O)Cc1cc2cc(F)c(F)cc2[nH]c1=O)c1ncc(C#N)cc1F (single isomer, unassigned)
Response given: 150

Challenge: Give me measured Skeletal EC25, please, for this molecule: C[C@H](NC(=O)Cc1cc2cc(O)ccc2[nH]c1=O)c1ccc(F)cc1F
Response given: 25670

Challenge: Give me measured Skeletal EC25, please, for this molecule: C[C@@H](NC(=O)C(F)(F)c1cc2cc(F)ccc2[nH]c1=O)c1cccc(C#N)n1 (single isomer, unassigned)
Response given: 100000

====

Biological target: Porcine ventricle myofibrils (ventricular myosin ATPase) (Sus scrofa)
Construct: Myofibrils from porcine cardiac muscle was isolated from the left ventricle of Yucatan minipigs; tissue Exemplar Genetics; host or cells: left ventricle of Yucatan minipigs, myofibrils prepared in house
Sequence (P79293 whole entry): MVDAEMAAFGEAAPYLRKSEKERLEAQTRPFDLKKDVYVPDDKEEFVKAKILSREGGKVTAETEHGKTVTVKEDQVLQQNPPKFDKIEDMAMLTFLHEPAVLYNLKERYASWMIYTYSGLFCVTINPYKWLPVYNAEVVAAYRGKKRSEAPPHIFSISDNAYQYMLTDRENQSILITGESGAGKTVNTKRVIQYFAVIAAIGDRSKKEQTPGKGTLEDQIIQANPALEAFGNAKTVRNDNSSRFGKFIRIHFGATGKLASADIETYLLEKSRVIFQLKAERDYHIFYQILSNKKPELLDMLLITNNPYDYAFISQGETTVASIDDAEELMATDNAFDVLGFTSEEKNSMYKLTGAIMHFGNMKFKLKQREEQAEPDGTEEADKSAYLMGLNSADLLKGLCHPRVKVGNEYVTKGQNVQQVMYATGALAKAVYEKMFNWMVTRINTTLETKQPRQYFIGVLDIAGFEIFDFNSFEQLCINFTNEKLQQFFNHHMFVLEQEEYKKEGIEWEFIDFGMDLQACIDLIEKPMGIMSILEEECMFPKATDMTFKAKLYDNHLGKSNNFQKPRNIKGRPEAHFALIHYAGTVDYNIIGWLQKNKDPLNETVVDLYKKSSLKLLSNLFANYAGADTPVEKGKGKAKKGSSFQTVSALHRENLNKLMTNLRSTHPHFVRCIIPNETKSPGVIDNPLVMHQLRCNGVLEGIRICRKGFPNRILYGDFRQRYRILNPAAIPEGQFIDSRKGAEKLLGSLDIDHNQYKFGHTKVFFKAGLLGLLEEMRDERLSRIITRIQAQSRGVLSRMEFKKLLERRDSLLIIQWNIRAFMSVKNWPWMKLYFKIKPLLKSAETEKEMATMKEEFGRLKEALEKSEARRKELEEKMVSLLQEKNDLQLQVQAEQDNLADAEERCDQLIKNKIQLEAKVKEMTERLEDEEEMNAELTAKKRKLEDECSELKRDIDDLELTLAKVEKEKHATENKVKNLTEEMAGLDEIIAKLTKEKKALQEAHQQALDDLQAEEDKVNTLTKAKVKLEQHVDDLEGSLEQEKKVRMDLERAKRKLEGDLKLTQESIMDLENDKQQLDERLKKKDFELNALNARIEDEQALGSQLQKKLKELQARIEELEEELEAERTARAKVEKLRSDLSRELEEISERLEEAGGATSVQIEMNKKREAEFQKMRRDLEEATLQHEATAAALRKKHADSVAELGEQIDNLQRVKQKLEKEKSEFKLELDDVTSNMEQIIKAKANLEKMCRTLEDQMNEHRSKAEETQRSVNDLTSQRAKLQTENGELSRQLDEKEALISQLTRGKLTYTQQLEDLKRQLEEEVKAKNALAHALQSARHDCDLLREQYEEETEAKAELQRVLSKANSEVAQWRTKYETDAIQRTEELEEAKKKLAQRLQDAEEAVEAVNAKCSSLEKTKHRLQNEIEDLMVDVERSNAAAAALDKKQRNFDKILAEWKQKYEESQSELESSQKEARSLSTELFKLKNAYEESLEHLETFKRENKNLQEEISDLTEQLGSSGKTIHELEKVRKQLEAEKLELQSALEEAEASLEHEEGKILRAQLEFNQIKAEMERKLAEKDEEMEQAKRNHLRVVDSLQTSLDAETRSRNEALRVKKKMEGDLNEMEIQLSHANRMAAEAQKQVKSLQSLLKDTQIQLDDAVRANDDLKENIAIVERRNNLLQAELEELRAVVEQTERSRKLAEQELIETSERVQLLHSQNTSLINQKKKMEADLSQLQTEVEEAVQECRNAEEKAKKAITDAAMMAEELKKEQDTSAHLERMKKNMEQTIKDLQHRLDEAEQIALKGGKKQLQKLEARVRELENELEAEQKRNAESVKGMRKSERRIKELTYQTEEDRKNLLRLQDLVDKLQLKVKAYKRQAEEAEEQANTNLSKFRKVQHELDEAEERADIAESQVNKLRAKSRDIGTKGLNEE
Assay: Myofibril ATPase assay, porcine ventricle myofibrils
Format: biochemical, porcine (Yucatan minipigs)
Details: porcine ventricle myofibrils; Y75 value
Give Ventricular EC25 for every item shown.
The reply should contain only the number, in µM.

Challenge: Give the observed Ventricular EC25 of Cc1nncc2[nH]c(=O)c(CC(=O)N[C@H](C)c3ncc(C#N)cc3F)cc12 for Porcine ventricle myofibrils (ventricular myosin ATPase) (Sus scrofa).
Response given: 100.00

Challenge: Give the observed Ventricular EC25 of Cc1c(CC(=O)N[C@@H](C)c2ccc(C#N)cc2F)c(=O)[nH]c2ccnc(OC3CC3)c12 for Porcine ventricle myofibrils (ventricular myosin ATPase) (Sus scrofa).
Response given: 0.83

Challenge: Give the observed Ventricular EC25 of Cc1cc([C@@H](C)NC(=O)Cc2cc3c(C#N)nccc3[nH]c2=O)ncc1F for Porcine ventricle myofibrils (ventricular myosin ATPase) (Sus scrofa).
Response given: 100.00

Challenge: Give the observed Ventricular EC25 of Cc1c(CC(=O)N[C@@H](C)c2ncc(C#N)cc2F)c(=O)[nH]c2ccc(O)nc12 for Porcine ventricle myofibrils (ventricular myosin ATPase) (Sus scrofa).
Response given: 100.00

Challenge: Give the observed Ventricular EC25 of Cc1c(CC(=O)N[C@@H](CO)c2ccc(F)cc2F)c(=O)[nH]c2ccc(C(F)(F)F)nc12 for Porcine ventricle myofibrils (ventricular myosin ATPase) (Sus scrofa).
Response given: 6.79

Challenge: Give the observed Ventricular EC25 of C[C@@H](NC(=O)Cc1c(C(F)(F)F)c2c(C3CC3)nccc2[nH]c1=O)c1ccc(C#N)nn1 (single isomer, unassigned) for Porcine ventricle myofibrils (ventricular myosin ATPase) (Sus scrofa).
Response given: 100.00

Challenge: Give the observed Ventricular EC25 of Cc1cc(F)cc(F)c1[C@@H](C)NC(=O)Cc1c(C)c2c(C)nccc2[nH]c1=O (single isomer, unassigned) for Porcine ventricle myofibrils (ventricular myosin ATPase) (Sus scrofa).
Response given: 42.84

====

Molecular target: Porcine ventricle myofibrils (ventricular myosin ATPase) (Sus scrofa)
Construct: Myofibrils from porcine cardiac muscle was isolated from the left ventricle of Yucatan minipigs; tissue Exemplar Genetics; host or cells: left ventricle of Yucatan minipigs, myofibrils prepared in house
Test: Myofibril ATPase assay, porcine ventricle myofibrils
Assay type: biochemical, porcine (Yucatan minipigs)
Conditions: Y75 value (no ‡ mark); porcine ventricle myofibrils
Give Ventricular EC25 for every item shown.
The reply should contain only the number, in µM.

Challenge: Give me measured Ventricular EC25, please, for this molecule: Cc1c(C(F)(F)C(=O)N[C@H](C)c2ccc(C#N)nn2)c(=O)[nH]c2ccc(F)cc12 (single isomer, unassigned) [compound 2555]
Response given: 6.70

Challenge: Give me measured Ventricular EC25, please, for this molecule: CC(C(=O)N[C@@H](C)c1ccc(F)cc1F)c1cc2c(Br)cccc2[nH]c1=O (some centres unmarked) [compound 94]
Response given: 100.00

Challenge: Give me measured Ventricular EC25, please, for this molecule: Cc1c(CC(=O)N[C@H](C)c2ncc(C#N)cn2)c(=O)[nH]c2cccc(C#N)c12 (single isomer, unassigned) [compound 2069]
Response given: 2.76

Challenge: Give me measured Ventricular EC25, please, for this molecule: Cc1c(CC(=O)N[C@H](CO)c2ccc(C#N)cc2F)c(=O)[nH]c2ccc(F)c(C3CC3)c12 [compound 71]
Response given: 8.50

Challenge: Give me measured Ventricular EC25, please, for this molecule: C[C@H](NC(=O)Cc1cc2c(F)c(F)ccc2[nH]c1=O)c1ncc(F)cc1F [compound 34]
Response given: 0.05

Challenge: Give me measured Ventricular EC25, please, for this molecule: CCc1c(CC(=O)N[C@@H](C)c2ccc(F)cc2F)c(=O)[nH]c2ccccc12 [compound 126]
Response given: 0.49

Challenge: Give me measured Ventricular EC25, please, for this molecule: C[C@@H](NC(=O)C1(c2cc3c(F)c(F)ccc3[nH]c2=O)CC1)c1ncc(C#N)cn1 (single isomer, unassigned) [compound 2549]
Response given: 100.00

Challenge: Give me measured Ventricular EC25, please, for this molecule: Cc1c(C(F)(F)C(=O)N[C@@H](C)c2nccc(C#N)n2)c(=O)[nH]c2ccc(F)cc12 (single isomer, unassigned) [compound 2528]
Response given: 100.00

Challenge: Give me measured Ventricular EC25, please, for this molecule: Cc1c(CC(=O)N[C@@H](C)c2ncc(C#N)cn2)c(=O)[nH]c2ccc(F)c(Cl)c12 (single isomer, unassigned) [compound 2056]
Response given: 0.29

Challenge: Give me measured Ventricular EC25, please, for this molecule: Cc1c(C2(C(=O)N[C@@H](C)c3ncc(C#N)cc3F)CC2)c(=O)[nH]c2ccc(F)c(C(F)(F)F)c12 (single isomer, unassigned) [compound 4802]
Response given: 1.00

Challenge: Give me measured Ventricular EC25, please, for this molecule: Cc1c(F)ccc2[nH]c(=O)c(CC(=O)N[C@H](C)c3ncc(C#N)cc3F)c(C#N)c12 [compound 1149]
Response given: 0.15

Challenge: Give me measured Ventricular EC25, please, for this molecule: Cc1c(C(F)(F)C(=O)N[C@@H](C)c2ncc(C#N)cc2F)c(=O)[nH]c2ccc(F)cc12 (single isomer, unassigned) [compound 2607]
Response given: 0.17

Challenge: Give me measured Ventricular EC25, please, for this molecule: C[C@@H](NC(=O)Cc1cc2cc(F)ccc2[nH]c1=O)c1ccc(C#N)cn1 [compound 1125]
Response given: 100.00

Challenge: Give me measured Ventricular EC25, please, for this molecule: Cc1c(C2(C(=O)N[C@H](C)c3ncc(C#N)cc3F)CC2)c(=O)[nH]c2ccc(F)c(C#N)c12 (single isomer, unassigned) [compound 2523]
Response given: 0.74

====

System: Porcine atria myofibrils (atrial myosin ATPase)
Assay: Myofibril ATPase assay, porcine atria myofibrils
Type: biochemical
Settings: porcine atria myofibrils; Y75 value (75% activity relative to no compound)
READOUT KIND: Atrial EC25 (µM)
The reply should contain only the number, in µM.

Challenge: Give the observed Atrial EC25 of Cc1c(CC(=O)N[C@@H](C)c2ncc(C#N)cc2F)c(=O)[nH]c2ccc(C(F)(F)F)nc12 [compound 147] for Porcine atria myofibrils (atrial myosin ATPase).
Response given: 0.02

Challenge: Give the observed Atrial EC25 of Cc1nccc2[nH]c(=O)c(CC(=O)N[C@H]3COc4cc(C#N)cc(F)c43)c(C)c12 (single isomer, unassigned) [compound 178] for Porcine atria myofibrils (atrial myosin ATPase).
Response given: 4.55

Challenge: Give the observed Atrial EC25 of Cc1nc(C#N)cnc1[C@H](C)NC(=O)Cc1c(C)c2c(C)nccc2[nH]c1=O [compound 492] for Porcine atria myofibrils (atrial myosin ATPase).
Response given: 0.08

Challenge: Give the observed Atrial EC25 of Cc1nccc2[nH]c(=O)c(CC(=O)N[C@H](C)c3ncccc3F)c(C)c12 (single isomer, unassigned) [compound 267] for Porcine atria myofibrils (atrial myosin ATPase).
Response given: 100.00

Challenge: Give the observed Atrial EC25 of CC(C(=O)N[C@@H](C)c1ccc(F)cc1F)c1cc2c(I)nccc2[nH]c1=O (some centres unmarked) [compound 362] for Porcine atria myofibrils (atrial myosin ATPase).
Response given: 9.38

Challenge: Give the observed Atrial EC25 of Cc1nc(C#N)ncc1[C@H](C)NC(=O)Cc1c(C)c2c(C)nccc2[nH]c1=O [compound 465] for Porcine atria myofibrils (atrial myosin ATPase).
Response given: 100.00

Challenge: Give the observed Atrial EC25 of Cc1ncc(C#N)nc1C(C)NC(=O)Cc1c(C)c2c(C)nccc2[nH]c1=O (centres unmarked) [compound 461] for Porcine atria myofibrils (atrial myosin ATPase).
Response given: 94.45

Challenge: Give the observed Atrial EC25 of Cc1c(CC(=O)N[C@H](CO)c2ccc(C#N)cc2F)c(=O)[nH]c2ccc(C(F)(F)F)nc12 [compound 218] for Porcine atria myofibrils (atrial myosin ATPase).
Response given: 100.00

Challenge: Give the observed Atrial EC25 of COc1cccc([C@H](C)NC(=O)Cc2c(C)c3c(C)nccc3[nH]c2=O)n1 (single isomer, unassigned) [compound 310] for Porcine atria myofibrils (atrial myosin ATPase).
Response given: 100.00

Challenge: Give the observed Atrial EC25 of Cc1c([C@@H](C)C(=O)N[C@@H](C)c2ccc(F)cc2F)c(=O)[nH]c2ccnc(Cl)c12 (single isomer, unassigned) [compound 365] for Porcine atria myofibrils (atrial myosin ATPase).
Response given: 0.18

Challenge: Give the observed Atrial EC25 of Cc1cccc([C@@H](C)NC(=O)Cc2c(C)c3c(C)nccc3[nH]c2=O)c1 (single isomer, unassigned) [compound 339] for Porcine atria myofibrils (atrial myosin ATPase).
Response given: 100.00

Challenge: Give the observed Atrial EC25 of Cc1nccc2[nH]c(=O)c(CC(=O)N[C@@H](CO)c3ncc(C#N)cc3F)c(C)c12 (single isomer, unassigned) [compound 248] for Porcine atria myofibrils (atrial myosin ATPase).
Response given: 0.86

Challenge: Give the observed Atrial EC25 of C[C@@H](NC(=O)Cc1cc2c(C#N)nccc2[nH]c1=O)c1ccc(C#N)cn1 [compound 472] for Porcine atria myofibrils (atrial myosin ATPase).
Response given: 4.05

Challenge: Give the observed Atrial EC25 of Cc1nccc2[nH]c(=O)c(CC(=O)N[C@H](C)c3cccnc3O)c(C)c12 (single isomer, unassigned) [compound 302] for Porcine atria myofibrils (atrial myosin ATPase).
Response given: 100.00
